Biological target: Inadl_6, Q8NI35
Sequence (Q8NI35 1058-1167): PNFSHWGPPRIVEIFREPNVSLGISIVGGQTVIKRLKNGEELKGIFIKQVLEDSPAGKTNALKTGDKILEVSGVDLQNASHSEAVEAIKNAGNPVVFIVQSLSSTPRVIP
Assay: holdup assay
Parameters: key: below the threshold = too weak to quantify, mostly under pKd 3.1 to 4
Details: plain residues with an end cap or a label only (N-terminal biotin on a linker: ado-ado)
metric name: pKd

Solved entries:
binder="PGKKPEDSRV [SLCO2B1, O94956]" obs_value="below the threshold"
binder="TKEIPNCTSV [SORCS3, Q9UPU3]" obs_value="below the threshold"
binder="YAEKRMLTEV [KCNA6, P17658]" obs_value="below the threshold"
binder="NKSEPFLTWL [WWTR1, Q9GZV5]" obs_value=5.68

Lookup: Would you kindly share the measured pKd for QQGLLPHSSC [TYRO3, Q06418] ?
Found: below the threshold
